Experiment: Selectivity for Opioid receptor mu 1 to that of Opioid receptor delta 1
Residues, ends and D or L forms follow the SMILES beside them.
ATTRIBUTE_MEASURED: Selectivity

## Input // lookup Selectivity for `NNC(=O)[C@H](Cc1ccccc1)NC(=O)[C@H](Cc1ccccc1)NC(=O)[C@@H]1CCCN1C(=O)[C@@H](N)Cc1ccc(O)cc1`
## Output > 1070

## Input Look up Selectivity for this molecule: `COC(=O)[C@H](Cc1ccccc1)NC(=O)[C@H](Cc1ccccc1)NC(=O)[C@@H]1CCCN1C(=O)[C@@H](N)Cc1ccc(O)cc1`
## Output > 1110

## Input Which Selectivity is reported for this molecule? `NC(=O)[C@H](Cc1ccccc1)NC(=O)[C@@H]1CCCN1C(=O)[C@H](Cc1ccc(O)cc1)NCCC(=O)[C@H](Cc1ccccc1)NC(=O)[C@@H]1CCCN1C(=O)[C@@H](N)Cc1ccc(O)cc1`
## Output 35.4

## Input Can you share its Selectivity? I mean this molecule: NC(=O)[C@H](Cc1ccccc1)NC(=O)[C@@H]1CCCN1C(=O)[C@@H](N)Cc1ccc(O)cc1 (H-Tyr-Pro-Phe-NH2)
## Output > 71.4

* * *

Task for the reader: assign each of the following molecules its reported Ki.
Experiment: Mean value of binding constant for Opioid receptors assayed with [3H]DPDPE
Value expressed in nM; do not type the unit.

## Input Given the molecule `N[C@@H](Cc1ccc(O)cc1)C(=O)N1CCC[C@H]1C(=O)N[C@@H](Cc1ccccc1)C(=O)N[C@@H](Cc1ccccc1)C(=O)NNC(=O)[C@H](Cc1ccccc1)NC(=O)[C@H](Cc1ccccc1)NC(=O)[C@@H]1CCCN1C(=O)[C@@H](N)Cc1ccc(O)cc1` , what is its reported Ki?
## Output 539

## Input Which Ki is listed for `N[C@@H](Cc1ccc(O)cc1)C(=O)N1CCC[C@H]1C(=O)N[C@@H](Cc1ccccc1)C(=O)NNC(=O)[C@H](Cc1ccccc1)NC(=O)[C@@H]1CCCN1C(=O)[C@@H](N)Cc1ccc(O)cc1` ?
## Output 1900

## Input // returns reported Ki for input `N[C@@H](Cc1ccc(O)cc1)C(=O)N1CCC[C@H]1C(=O)N[C@@H](Cc1ccccc1)C(=O)N[C@@H](Cc1ccccc1)C(=O)NCCNC(=O)[C@H](Cc1ccccc1)NC(=O)[C@H](Cc1ccccc1)NC(=O)[C@@H]1CCCN1C(=O)[C@@H](N)Cc1ccc(O)cc1`
## Output 613

* * *

Experiment: Mean value of binding constant for Opioid receptors assayed with [3H]DAMGO
Residues, ends and D or L forms follow the SMILES beside them.
ATTRIBUTE_MEASURED: Ki (nM)
Dear colleague, please return just the value in nM, with no unit written.

## Input I would be grateful if you could share the reported Ki for `N[C@@H](Cc1ccc(O)cc1)C(=O)N1CCC[C@H]1C(=O)N[C@@H](Cc1ccccc1)C(=O)NNC(=O)[C@H](Cc1ccccc1)NC(=O)[C@@H]1CCCN1C(=O)[C@@H](N)Cc1ccc(O)cc1` .
## Output 30.7

## Input Which value of Ki has been reported for `NNC(=O)[C@H](Cc1ccccc1)NC(=O)[C@H](Cc1ccccc1)NC(=O)[C@@H]1CCCN1C(=O)[C@@H](N)Cc1ccc(O)cc1` in the records?
## Output 9.35

## Input State the recorded Ki for this entry: NC(=O)[C@H](Cc1ccccc1)NC(=O)[C@@H]1CCCN1C(=O)[C@@H](N)Cc1ccc(O)cc1 (H-Tyr-Pro-Phe-NH2)
## Output 140

Origin of values: ChEMBL document CHEMBL1143501
